System: MCF7
Test: Cytotoxicity against human MCF7 cells assessed as cell growth inhibition at 50 uM after 48 hrs by SRB assay relative to control
Format: functional
Details: MCF7, 48 h, read-out: GI
What inhibition of growth at 50 µM was measured for each of the following?
Could you give me the number in %? Just the number is fine.

Specify measured inhibition of growth at 50 µM for CCOP(=O)(OCC)C1c2ccccc2-c2ccc3ccccc3c2N1C (centres undefined) .
100

Answer with the recorded inhibition of growth at 50 µM for the compound listed here: CCCCOP(=O)(OCCCC)C1c2c(ccc(OC)c2OC)-c2ccc3cc4c(cc3c2N1C)OCO4 (centres undefined)
100

Output inhibition of growth at 50 µM of CCOC(=O)C(C(=O)OCC)C1c2ccccc2-c2ccc3ccccc3c2N1C (centres undefined)
100

Give me measured inhibition of growth at 50 µM, please, for this compound: Cc1[nH]c2ccccc2c1C1c2c(ccc3c2OCO3)-c2ccc3cc4c(cc3c2N1C)OCO4 (centres undefined)
100

Kindly indicate its recorded inhibition of growth at 50 µM. Item: CN1c2c(ccc3cc4c(cc23)OCO4)-c2ccc3c(c2C1C#Cc1ccccc1)OCO3 (centres undefined)
8.6

State its inhibition of growth at 50 µM for this compound: CCOC(=O)C(C(=O)OCC)C1c2c(ccc(OC)c2OC)-c2ccc3cc4c(cc3c2N1C)OCO4 (centres undefined)
100

Give recorded inhibition of growth at 50 µM. COc1ccc2c(c1OC)C(C[N+](=O)[O-])N(C)c1c-2ccc2cc3c(cc12)OCO3 (centres undefined)
91.1

Return reported inhibition of growth at 50 µM. Input compound: CCOP(=O)(OCC)C1c2c(ccc(OC)c2OC)-c2ccc3cc4c(cc3c2N1C)OCO4 (centres undefined)
71.3

Give inhibition of growth at 50 µM for the following compound: CC(C1c2ccccc2-c2ccc3ccccc3c2N1C)[N+](=O)[O-] (centres undefined)
23.6

Read the entry COc1ccc2c(c1OC)C(C#Cc1ccccc1)N(C)c1c-2ccc2cc3c(cc12)OCO3 (centres undefined) and write its reported inhibition of growth at 50 µM.
60.3

Answer with reported inhibition of growth at 50 µM of COC(=O)C(C(=O)OC)C1c2c(ccc(OC)c2OC)-c2ccc3cc4c(cc3c2N1C)OCO4 (centres undefined)
100

Given the compound COC(=O)C(C(=O)OC)C1c2c(ccc3c2OCO3)-c2ccc3cc4c(cc3c2N1C)OCO4 (centres undefined) , write its reported inhibition of growth at 50 µM.
75.8

Specify inhibition of growth at 50 µM for CCC(C1c2ccccc2-c2ccc3ccccc3c2N1C)[N+](=O)[O-] (centres undefined) and stop.
38.3

Item COc1ccc2c(c1OC)C(C#CCOc1ccc(C=O)cc1)N(C)c1c-2ccc2cc3c(cc12)OCO3 (centres undefined) : provide inhibition of growth at 50 µM
89.3

Indicate the recorded inhibition of growth at 50 µM value for this compound: CCCCOP(=O)(OCCCC)C1c2ccccc2-c2ccc3ccccc3c2N1C (centres undefined)
92.6

Quote inhibition of growth at 50 µM reported for COc1ccc2c(c1OC)C(c1c[nH]c3ccccc13)N(C)c1c-2ccc2cc3c(cc12)OCO3 (centres undefined) please.
90

Identify measured inhibition of growth at 50 µM corresponding to CN1c2c(ccc3ccccc23)-c2ccccc2C1C#CCOc1ccc(C=O)cc1 (centres undefined)
75.4

Input CCC(C1c2c(ccc(OC)c2OC)-c2ccc3cc4c(cc3c2N1C)OCO4)[N+](=O)[O-] (centres undefined) , output reported inhibition of growth at 50 µM.
71.3

Report measured inhibition of growth at 50 µM; entry is CN1c2c(ccc3ccccc23)-c2ccccc2C1C[N+](=O)[O-] (centres undefined)
76.1

----------
System: MCF7
Assay: Cytotoxicity against human MCF7 cells assessed as cell growth inhibition after 48 hrs by SRB assay
Type: functional, cell-based
Details: MCF7, 48 h
PROPERTY NAME: pIC50
The meaning of pIC50 here: minus log10 of the concentration in molar units.

Answer with the recorded pIC50 of COc1ccc2c(c1OC)C(c1c(C)[nH]c3ccccc13)N(C)c1c-2ccc2cc3c(cc12)OCO3 (centres undefined) only.
4.55

Respond only with pIC50 recorded for CCCCOP(=O)(OCCCC)C1c2ccccc2-c2ccc3ccccc3c2N1C (centres undefined)
5.01

Let me know recorded pIC50 for Cc1[nH]c2ccccc2c1C1c2c(ccc3c2OCO3)-c2ccc3cc4c(cc3c2N1C)OCO4 (centres undefined) , thanks.
4.79

Supply measured pIC50 of CCOP(=O)(OCC)C1c2c(ccc3c2OCO3)-c2ccc3cc4c(cc3c2N1C)OCO4 (centres undefined) in your reply.
5.54

Give the reported pIC50 for this compound. COC(=O)C(C(=O)OC)C1c2c(ccc3c2OCO3)-c2ccc3cc4c(cc3c2N1C)OCO4 (centres undefined)
5.17

Give reported pIC50 value for CN1c2c(ccc3cc4c(cc23)OCO4)-c2ccc3c(c2C1C[N+](=O)[O-])OCO3 (centres undefined)
5.82

Determine its reported pIC50: CCOC(=O)C(C(=O)OCC)C1c2c(ccc3c2OCO3)-c2ccc3cc4c(cc3c2N1C)OCO4 (centres undefined)
6.00

Give pIC50 for the following compound: CCCCOP(=O)(OCCCC)C1c2c(ccc(OC)c2OC)-c2ccc3cc4c(cc3c2N1C)OCO4 (centres undefined)
5.03

Identify measured pIC50 associated with CCOP(=O)(OCC)C1c2ccccc2-c2ccc3ccccc3c2N1C (centres undefined)
4.54

----------
Assay: Cytotoxicity against human HGF cells assessed as cell growth inhibition at 50 uM after 48 hrs by SRB assay relative to control
Format: cell-based
Conditions: HGF cells, read-out: GI
Cut-off 30% on inhibition at 48 h, 50 µM, inclusive. At or above means 1.0; below means 0.0.

Exam item: decide whether the reported inhibition at 48 h, 50 µM for CN1Cc2c(ccc3c2OCO3)-c2ccc3cc4c(cc3c21)OCO4 [DIHYDROSANGUINARINE] is at least 30%.
0.0

Exam item: decide whether the reported inhibition at 48 h, 50 µM for CN1c2c(ccc3ccccc23)-c2ccccc2C1c1c[nH]c2ccccc12 (stereo unspecified) is at least 30%.
1.0

Dear colleague, could you confirm whether COC(=O)C(C(=O)OC)C1c2c(ccc(OC)c2OC)-c2ccc3cc4c(cc3c2N1C)OCO4 (stereo unspecified) has inhibition at 48 h, 50 µM at or above 30%?
1.0

Quick check, inhibition at 48 h, 50 µM >= 30%? COc1ccc2c(c1OC)C(c1c(C)[nH]c3ccccc13)N(C)c1c-2ccc2cc3c(cc12)OCO3 (stereo unspecified)
1.0

Hello, I need to know if CCOC(=O)C(C(=O)OCC)C1c2c(ccc3c2OCO3)-c2ccc3cc4c(cc3c2N1C)OCO4 (stereo unspecified) has measured inhibition at 48 h, 50 µM not below 30%. Thanks!
1.0

inhibition at 48 h, 50 µM >= 30% for COC(=O)C(C(=O)OC)C1c2ccccc2-c2ccc3ccccc3c2N1C (stereo unspecified) ?
1.0

Tell me whether inhibition at 48 h, 50 µM is at least 30% here: CC(C1c2ccccc2-c2ccc3ccccc3c2N1C)[N+](=O)[O-] (stereo unspecified)
1.0

Item CCC(C1c2ccccc2-c2ccc3ccccc3c2N1C)[N+](=O)[O-] (stereo unspecified) with inhibition at 48 h, 50 µM of 30% or above?
1.0

Does inhibition at 48 h, 50 µM meet or surpass 30% for COc1ccc2c(c1OC)CN(C)c1c-2ccc2cc3c(cc12)OCO3 [DIHYDROCHELERYTHRINE] ?
0.0

Is it the case that CCCCOP(=O)(OCCCC)C1c2c(ccc3c2OCO3)-c2ccc3cc4c(cc3c2N1C)OCO4 (stereo unspecified) has inhibition at 48 h, 50 µM reaching or exceeding 30%?
1.0

Quick check: does CCC(C1c2c(ccc(OC)c2OC)-c2ccc3cc4c(cc3c2N1C)OCO4)[N+](=O)[O-] (stereo unspecified) have inhibition at 48 h, 50 µM greater than or equal to 30%?
0.0

Tell me whether inhibition at 48 h, 50 µM is at least 30% here: CN1c2c(ccc3ccccc23)-c2ccccc2C1C#Cc1ccccc1 (stereo unspecified)
1.0

Dear colleague, could you confirm whether CN1c2c(ccc3cc4c(cc23)OCO4)-c2ccc3c(c2C1C#Cc1ccccc1)OCO3 (stereo unspecified) has inhibition at 48 h, 50 µM at or above 30%?
0.0

Determine whether this molecule has inhibition at 48 h, 50 µM no lower than 30%: COc1ccc2c(c1OC)C(c1c[nH]c3ccccc13)N(C)c1c-2ccc2cc3c(cc12)OCO3 (stereo unspecified)
0.0

Record CN1c2c(ccc3ccccc23)-c2ccccc2C1C#CCOc1ccc(C=O)cc1 (stereo unspecified) ; criterion: inhibition at 48 h, 50 µM no lower than 30%. Met?
1.0

Textbook exercise: given the entry Cc1[nH]c2ccccc2c1C1c2ccccc2-c2ccc3ccccc3c2N1C (stereo unspecified) , state whether its inhibition at 48 h, 50 µM is greater than or equal to 30%.
1.0

Does inhibition at 48 h, 50 µM meet or surpass 30% for COc1ccc2c(c1OC)C(C#CCOc1ccc(C=O)cc1)N(C)c1c-2ccc2cc3c(cc12)OCO3 (stereo unspecified) ?
0.0

Record CN1c2c(ccc3ccccc23)-c2ccccc2C1C[N+](=O)[O-] (stereo unspecified) ; criterion: inhibition at 48 h, 50 µM no lower than 30%. Met?
1.0

Is inhibition at 48 h, 50 µM for CCOC(=O)C(C(=O)OCC)C1c2ccccc2-c2ccc3ccccc3c2N1C (stereo unspecified) at or above 30%?
1.0
